- Measured On: GST-VRK1 (Homo sapiens, UniProt Q99986)
- Construct: made in house
- Sequence (Q99986 1-396): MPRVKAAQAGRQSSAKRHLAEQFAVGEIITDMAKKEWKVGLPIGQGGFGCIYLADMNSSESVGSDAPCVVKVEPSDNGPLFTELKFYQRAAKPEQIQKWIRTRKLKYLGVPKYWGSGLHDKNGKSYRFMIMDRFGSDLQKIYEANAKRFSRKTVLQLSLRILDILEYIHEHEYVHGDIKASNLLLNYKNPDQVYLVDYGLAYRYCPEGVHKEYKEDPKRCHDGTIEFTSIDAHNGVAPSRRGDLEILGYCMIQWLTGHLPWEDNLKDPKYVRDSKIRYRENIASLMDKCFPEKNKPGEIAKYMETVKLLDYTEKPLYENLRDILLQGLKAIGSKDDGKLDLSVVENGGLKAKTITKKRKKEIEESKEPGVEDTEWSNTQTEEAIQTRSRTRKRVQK
- Assay: In vitro kinase assay, GST-VRK1 autophosphorylation
- Assay type: biochemical
- Protocol Conditions: 5 µM ATP; average of three experiments, ± standard deviation; No inhibition is lack of effect at 100 µM; read-out: IC50 (µM) GST-VRK1 Auto- phosphorylation
Observed Property: IC50 (µM)
Give just the number in µM; leave the unit off.

Compound	IC50 / µM
COc1cc(OC)c(C=C2C(=O)Nc3ccccc32)c(OC)c1 [IC261]	121

QUERY: Value wanted: IC50 (GST-VRK1 (Homo sapiens, UniProt Q99986)) of entry Cn1cc(C2=C(c3cn(CCCSC(=N)N)c4ccccc34)C(=O)NC2=O)c2ccccc21 [RO 31–8220]
RESULT: 11.1

* * *

- Measured On: GST-VRK2A (Homo sapiens, UniProt Q86Y07)
- Construct: a full-length protein of 508 aminoacids (known as VRK2 and VRK2A); made in house; host or cells: E. coli BL21
- Sequence (Q86Y07 whole entry): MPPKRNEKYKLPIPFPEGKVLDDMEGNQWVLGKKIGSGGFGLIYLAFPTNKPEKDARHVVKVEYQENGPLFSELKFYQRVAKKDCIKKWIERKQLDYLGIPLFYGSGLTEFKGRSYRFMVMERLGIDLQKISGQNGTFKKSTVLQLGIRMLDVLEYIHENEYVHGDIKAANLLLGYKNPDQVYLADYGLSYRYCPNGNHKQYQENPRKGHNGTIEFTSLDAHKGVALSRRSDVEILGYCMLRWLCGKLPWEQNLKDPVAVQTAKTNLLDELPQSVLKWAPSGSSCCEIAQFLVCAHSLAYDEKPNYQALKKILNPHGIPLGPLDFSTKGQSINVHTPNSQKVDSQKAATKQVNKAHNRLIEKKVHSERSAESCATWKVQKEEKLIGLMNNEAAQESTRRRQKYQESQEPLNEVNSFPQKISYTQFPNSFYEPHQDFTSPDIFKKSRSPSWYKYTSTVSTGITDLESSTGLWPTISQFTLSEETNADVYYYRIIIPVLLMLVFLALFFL
- Assay: In vitro kinase assay, GST-VRK2A autophosphorylation
- Assay type: biochemical
- Protocol Conditions: 5 µM ATP; average of three experiments, ± standard deviation; No inhibition is lack of effect at 100 µM
Observed Property: IC50 (µM) GST-VRK2A Auto-phosphorylation

Smiles Structure	Observed Property	Result
CC(=O)c1ccc(N2CCOCC2)cc1O	IC50 (µM) GST-VRK2A Auto-phosphorylation	No inhibition
Cc1ccc(-c2nn(C(C)(C)C)c3ncnc(N)c23)cc1	IC50 (µM) GST-VRK2A Auto-phosphorylation	No inhibition
O=c1cc(-c2cccc3c2Sc2ccccc2S3)oc(N2CCOCC2)c1	IC50 (µM) GST-VRK2A Auto-phosphorylation	No inhibition

* * *

Reported values of IC50 for individual entries
- Measured On: GST-VRK2A (Homo sapiens, UniProt Q86Y07)
- Construct: a full-length protein of 508 aminoacids (known as VRK2 and VRK2A); made in house; host or cells: E. coli BL21
- Assay: In vitro kinase assay, GST-VRK2A phosphorylation of histone H3
- Format: biochemical
Give just the number in µM; leave the unit off.

Guide cases for IC50, answers given:
Smiles Structure	IC50, µM
Oc1c2ccccc2c2c3c(cccc13)N=N2	11.1
NC(=O)Nc1cc(-c2cccc(F)c2)sc1C(=O)N[C@H]1CCCNC1	24.4

Now, please, on to the next compound.
QUERY: Value wanted: IC50 (GST-VRK2A (Homo sapiens, UniProt Q86Y07)) of entry `O=C1Nc2ccccc2C1=Cc1c(Cl)[nH]c2ccccc12`
RESULT: 10.8

* * *

Below are pIC50 values measured for VRK2A (Homo sapiens).
pIC50 is defined as minus the log10 of a concentration measured in mol/L.

Guide cases for pIC50, answers given:
Molecule	Measured On	Result Number
NC(=O)Nc1cc(-c2cccc(F)c2)sc1C(=O)N[C@H]1CCCNC1 [AZD7762]	VRK2A (Homo sapiens)	4.52
COc1cc(OC)c(C=C2C(=O)Nc3ccccc32)c(OC)c1 [IC261]	VRK2A (Homo sapiens)	5.00

QUERY: // lookup pIC50 for O=C1Nc2ccccc2C1=Cc1c(Cl)[nH]c2ccccc12 [Cdk1 Inhibitor]
RESULT: 5.40

* * *

Reported values of IC50 for individual entries
- Measured On: GST-VRK2A (Homo sapiens, UniProt Q86Y07)
- Construct: a full-length protein of 508 aminoacids (known as VRK2 and VRK2A); made in house; host or cells: E. coli BL21
- Assay: In vitro kinase assay, GST-VRK2A autophosphorylation
- Format: biochemical
- Protocol Conditions: 5 µM ATP; average of three experiments, ± standard deviation; No inhibition is lack of effect at 100 µM; read-out: IC50 (µM) GST-VRK2A Auto-phosphorylation
Give just the number in µM; leave the unit off.

Smiles Structure	IC50 / µM
Cn1cc(C2=C(c3cn(CCCSC(=N)N)c4ccccc34)C(=O)NC2=O)c2ccccc21	31.8

QUERY: // lookup IC50 for `COc1cc(OC)c(C=C2C(=O)Nc3ccccc32)c(OC)c1`
RESULT: 11.1

* * *

- Measured On: VRK2A (Homo sapiens)
- Construct: a full-length protein of 508 aminoacids (known as VRK2 and VRK2A); made in house; host or cells: E. coli BL21
- Assay: In vitro kinase assay, VRK2A kinase activity (autophosphorylation and H3 phosphorylation)
- Assay type: biochemical
- Protocol Conditions: inhibitor 100 µM, 5 µM ATP, autophosphorylation and H3 phosphorylation
Observed Property: Effect on VRK2 (VRK2A) kinase activity at 100 µM inhibitor (in words)

Compound	Result
O=c1cc(-c2cccc3c2Sc2ccccc2S3)oc(N2CCOCC2)c1	no noticeable effect
O=c1cc(N2CCOCC2)oc2c1ccc1ccccc12 [NU7026, 2-(Morpholin-4-yl)-benzo[h]chomen-4-one]	no noticeable effect
